solubility at 1 h listing for selected compounds.
# PROCEDURE_DETAILS: Water solubility determination using HPLC
# Assay type: physicochemical
# SETTINGS: 37 °C, thermodynamic from solid
QUANTITY_NAME: solubility at 1 h (µg/mL)

compound="CC1=C(O)C(=O)C=C2C1=CC=C1[C@@]2(C)CC[C@@]2(C)[C@@H]3C[C@](C)(C(=O)OCCCO)CC[C@]3(C)CC[C@]12C [Compound 2]" result_units=µg/mL result_value=11.8
compound="CC1=C(O)C(=O)C=C2C1=CC=C1[C@@]2(C)CC[C@@]2(C)[C@@H]3C[C@](C)(C(=O)O)CC[C@]3(C)CC[C@]12C [celastrol, Celastrol, reference compound]" result_units=µg/mL result_value=6.2
